Measured values drawn from paper PMC12040169 for this set.

Experiment: in vitro
Details: human, hela cells, % viability
MEASUREMENT_TYPE: viability at 28.5 h, 10 µM (%)
The response must be a number in % with no trailing unit.

As a guide, the following entries are already answered.
[
  {
    "MOLECULE": "Cc1nc(N/N=C/c2ccc3c(c2)OCO3)sc1C",
    "UNIT_INFO": "%",
    "viability at 28.5 h, 10 µM": 106
  },
  {
    "MOLECULE": "CCOC(=O)c1[nH]c2ccccc2c1NC(=O)c1c(F)ccc(Cl)c1F",
    "UNIT_INFO": "%",
    "viability at 28.5 h, 10 µM": 120
  },
  {
    "MOLECULE": "CN1CCOc2ccccc2C(=O)NC/C=C/CC2(CCCN(Cc3cc[nH]n3)C2)C1=O (centres unmarked)",
    "UNIT_INFO": "%",
    "viability at 28.5 h, 10 µM": 103
  },
  {
    "MOLECULE": "Nc1cc2cc(F)ccc2nc1C1CCN(C(=O)C2CC2)CC1",
    "UNIT_INFO": "%",
    "viability at 28.5 h, 10 µM": 93.4
  },
  {
    "MOLECULE": "Cn1cc(C2CCCCCN2C(=O)c2cccc(F)c2)cn1 (centres unmarked)",
    "UNIT_INFO": "%",
    "viability at 28.5 h, 10 µM": 102
  }
]

The molecule CC(N)C1CCCN(S(=O)(=O)c2ccc(OCc3ncnn3C)cc2)C1 (centres unmarked) showed viability at 28.5 h, 10 µM equal to 114

The molecule CCOC(=O)N1CCC(NS(=O)(=O)c2ccc3ccccc3c2)CC1 showed viability at 28.5 h, 10 µM equal to 92
